Biological target: human muscarinic M4 receptor (Homo sapiens, UniProt P08173)
Construct: expressed in transfected cells
Sequence (P08173 1-479): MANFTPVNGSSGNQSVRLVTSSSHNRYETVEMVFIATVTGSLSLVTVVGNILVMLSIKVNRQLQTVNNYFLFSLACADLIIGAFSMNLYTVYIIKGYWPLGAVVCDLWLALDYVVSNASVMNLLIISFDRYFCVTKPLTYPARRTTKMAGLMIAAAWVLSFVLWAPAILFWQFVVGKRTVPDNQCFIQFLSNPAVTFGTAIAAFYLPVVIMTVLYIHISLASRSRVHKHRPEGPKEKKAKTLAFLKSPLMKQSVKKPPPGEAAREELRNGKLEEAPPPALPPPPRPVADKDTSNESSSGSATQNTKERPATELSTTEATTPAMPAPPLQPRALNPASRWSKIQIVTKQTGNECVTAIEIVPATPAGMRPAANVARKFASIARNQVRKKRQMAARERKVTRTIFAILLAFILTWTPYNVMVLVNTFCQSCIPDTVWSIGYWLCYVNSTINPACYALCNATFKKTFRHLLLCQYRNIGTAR
Experiment: Alphascreen Surefire phospho-ERK1/2 functional assay, M4
Assay type: cell-based
Conditions: CHO cells stably expressing human M4; phospho-ERK1/2; * = variable results; read-out: pEC50 M4 (converted)
Entries annotated with measured EC50

{"columns": ["molecule", "test-target", "EC50, nM"],
 "data": [
  ["CCOC(=O)N1CCC2(CC(N3CCC([C@@H]4CCCN4c4ccncc4)CC3)C2)C1 (single isomer, unassigned) [2-80 Isomer 2]", "human muscarinic M4 receptor (Homo sapiens, UniProt P08173)", 20],
  ["CCOC(=O)N1CCC2(CC(N3CCC(C4CC(C)CNC4=O)CC3)C2)C1 (single isomer, unassigned) [4-4 Isomer 2]", "human muscarinic M4 receptor (Homo sapiens, UniProt P08173)", 5.01],
  ["CCOC(=O)N1CCC2(CC(N3CCC(N4CC(F)(F)C[C@@H]4C(N)=O)CC3)C2)C1 (single isomer, unassigned) [2-90 Isomer 2]", "human muscarinic M4 receptor (Homo sapiens, UniProt P08173)", 12.6],
  ["CCOC(=O)N1CCC2(CC(N3CCC([C@@H]4CCCN4C(=O)NC(C)C)CC3)C2)C1 (single isomer, unassigned) [2-25 Isomer 2]", "human muscarinic M4 receptor (Homo sapiens, UniProt P08173)", 10],
  ["CCOC(=O)N1CCC2(CC(N3CCC([C@@H]4CCCN4c4ccccc4)CC3)C2)C1 (single isomer, unassigned) [2-77 Isomer 2]", "human muscarinic M4 receptor (Homo sapiens, UniProt P08173)", 6.31],
  ["CCOC(=O)N1CCC2(CC(N3CCC(N4CCSCC4)CC3)C2)C1 (single isomer, unassigned) [4-12 Isomer 2]", "human muscarinic M4 receptor (Homo sapiens, UniProt P08173)", 39.8],
  ["CCOC(=O)N1CCC2(CC(N3CCC(N4CCC[C@H]4C(F)(F)F)CC3)C2)C1 (single isomer, unassigned) [2-101 Isomer 2]", "human muscarinic M4 receptor (Homo sapiens, UniProt P08173)", 631],
  ["CCOC(=O)N1CCC2(CC(N3CCC(C4CCCNC4=O)CC3)C2)C1 (single isomer, unassigned) [4-1 Isomer 4]", "human muscarinic M4 receptor (Homo sapiens, UniProt P08173)", 50.1],
  ["CCOC(=O)N1CCC2(CC(N3CCC(N4CCCC[C@@H]4C(=O)OC)CC3)C2)C1 (single isomer, unassigned) [4-15 Isomer 2]", "human muscarinic M4 receptor (Homo sapiens, UniProt P08173)", 63.1],
  ["CCOC(=O)N1CCC2(CC(N3CCC(N4CCCC4c4ccn[nH]4)CC3)C2)C1 (single isomer, unassigned) [2-126 Isomer 2]", "human muscarinic M4 receptor (Homo sapiens, UniProt P08173)", 79.4],
  ["COC(=O)N1CCC2(CC(N3CCC(c4nc(Cl)c(Cl)n4C)CC3)C2)C1 (single isomer, unassigned) [1-16 Isomer 2]", "human muscarinic M4 receptor (Homo sapiens, UniProt P08173)", 158],
  ["CCOC(=O)N1CCC2(CC(N3CCC([C@@H]4CCCN4C(=O)COC)CC3)C2)C1 (single isomer, unassigned) [2-46 Isomer 2]", "human muscarinic M4 receptor (Homo sapiens, UniProt P08173)", 15.8],
  ["CCOC(=O)N1CCC2(CC(N3CCC([C@@H]4CCCN4CC)CC3)C2)C1 (single isomer, unassigned) [2-61 Isomer 2]", "human muscarinic M4 receptor (Homo sapiens, UniProt P08173)", 501],
  ["CCOC(=O)N1CCC2(CC(N3CCC(c4nc(Cl)c(Cl)n4C)CC3)C2)C1 (single isomer, unassigned) [1-17 Isomer 2]", "human muscarinic M4 receptor (Homo sapiens, UniProt P08173)", 63.1],
  ["CCOC(=O)N1CCC2(CC(N3CCC(c4ncc[nH]4)CC3)C2)C1 (single isomer, unassigned) [1-1 Isomer 2]", "human muscarinic M4 receptor (Homo sapiens, UniProt P08173)", 7.94],
  ["CCOC(=O)N1CCC2(CC(N3CCC(N4CC(F)(F)C[C@@H]4C(=O)NOC)CC3)C2)C1 (single isomer, unassigned) [2-91 Isomer 2]", "human muscarinic M4 receptor (Homo sapiens, UniProt P08173)", 79.4],
  ["CCOC(=O)N1CCC2(CC(N3CCC(c4nccn4C(=O)OCC)CC3)C2)C1 (single isomer, unassigned) [1-8 Isomer 2]", "human muscarinic M4 receptor (Homo sapiens, UniProt P08173)", 15.8],
  ["CCOC(=O)N1CCC2(CC(N3CCC([C@@H]4CCCN4C(=O)NOC)CC3)C2)C1 (single isomer, unassigned) [2-33 Isomer 2]", "human muscarinic M4 receptor (Homo sapiens, UniProt P08173)", 20],
  ["CCOC(=O)N1CCC2(CC(N3CCC(c4c(C)cc[nH]c4=O)CC3)C2)C1 (single isomer, unassigned) [3-14 Isomer 1]", "human muscarinic M4 receptor (Homo sapiens, UniProt P08173)", 501],
  ["CCOC(=O)N1CCC2(CC(N3CCC([C@@H]4CCCN4c4nccs4)CC3)C2)C1 (single isomer, unassigned) [2-82 Isomer 2]", "human muscarinic M4 receptor (Homo sapiens, UniProt P08173)", 20],
  ["CCOC(=O)N1CCC2(CC(N3CCC(N4CCN(C)C4=O)CC3)C2)C1 (single isomer, unassigned) [2-125 Isomer 2]", "human muscarinic M4 receptor (Homo sapiens, UniProt P08173)", 316],
  ["CCOC(=O)N1CCC2(CC(N3CCC([C@@H]4CCCN4C(=O)NCc4ccccn4)CC3)C2)C1 (single isomer, unassigned) [2-54 Isomer 1]", "human muscarinic M4 receptor (Homo sapiens, UniProt P08173)", 15.8],
  ["CCOC(=O)N1CCC2(CC(N3CCC([C@@H]4CCCN4C(=O)CC)CC3)C2)C1 (single isomer, unassigned) [2-7 Isomer 2]", "human muscarinic M4 receptor (Homo sapiens, UniProt P08173)", 12.6],
  ["CCOC(=O)N1CCC2(CC(N3CCC([C@@H]4CCCN4CC(=O)N(C)C)CC3)C2)C1 (single isomer, unassigned) [2-73 Isomer 2]", "human muscarinic M4 receptor (Homo sapiens, UniProt P08173)", 316],
  ["CCOC(=O)N1CCC2(CC(N3CCC(N4CCC[C@@H]4c4nccs4)CC3)C2)C1 (single isomer, unassigned) [2-132 Isomer 2]", "human muscarinic M4 receptor (Homo sapiens, UniProt P08173)", 12.6]
]}

* * *

Target: human muscarinic M3 receptor (Homo sapiens)
Sequence (P20309 whole entry): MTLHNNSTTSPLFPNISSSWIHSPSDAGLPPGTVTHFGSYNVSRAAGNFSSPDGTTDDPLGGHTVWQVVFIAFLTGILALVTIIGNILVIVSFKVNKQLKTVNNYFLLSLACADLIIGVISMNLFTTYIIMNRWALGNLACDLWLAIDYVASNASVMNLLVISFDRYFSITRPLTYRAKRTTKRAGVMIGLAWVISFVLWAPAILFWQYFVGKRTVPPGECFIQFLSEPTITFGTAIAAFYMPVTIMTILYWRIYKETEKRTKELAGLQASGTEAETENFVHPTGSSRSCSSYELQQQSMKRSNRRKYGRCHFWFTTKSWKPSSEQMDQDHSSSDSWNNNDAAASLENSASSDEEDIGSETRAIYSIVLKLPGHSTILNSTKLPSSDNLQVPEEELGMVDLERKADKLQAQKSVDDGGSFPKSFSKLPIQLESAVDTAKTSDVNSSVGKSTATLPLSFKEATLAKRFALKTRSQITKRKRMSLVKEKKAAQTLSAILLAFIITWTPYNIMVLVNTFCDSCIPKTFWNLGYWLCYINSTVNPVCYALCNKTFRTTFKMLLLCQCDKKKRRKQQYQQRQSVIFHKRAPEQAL
Experiment: Alphascreen Surefire phospho-ERK1/2 functional assay, M3
Settings: CHO, read-out: % Emax cf. ACh, M3, CHO cells stably expressing human M3; relative to ACh
Entries annotated with measured Emax

{"columns": ["compound", "Emax, %"],
 "data": [
  ["CCOC(=O)N1CCC2(CC(N3CCC([C@@H]4CCCN4C(=O)CCc4ccccn4)CC3)C2)C1 (single isomer, unassigned) [2-62 Isomer 2]", 8],
  ["CCOC(=O)N1CCC2(CC(N3CCC(C4CC(C)CNC4=O)CC3)C2)C1 (single isomer, unassigned) [4-4 Isomer 2]", 21],
  ["CCOC(=O)N1CCC2(CC(N3CCC(C4CCCN4C(=O)CNC)CC3)C2)C1 (single isomer, unassigned) [2-23 Isomer 2]", 9],
  ["CCOC(=O)N1CCC2(CC(N3CCC([C@@H]4CCCN4c4nccs4)CC3)C2)C1 (single isomer, unassigned) [2-82 Isomer 2]", 0],
  ["CCOC(=O)N1CCC2(CC(N3CCC(c4cccc(OC)n4)CC3)C2)C1 (single isomer, unassigned) [3-13 Isomer 2]", 1],
  ["CCOC(=O)N1CCC2(CC(N3CCC(c4cscn4)CC3)C2)C1 (single isomer, unassigned) [1-50 Isomer 2]", 8]
]}

* * *

Entries annotated with measured Emax
Biological target: human muscarinic M4 receptor (Homo sapiens, UniProt P08173)
Construct: expressed in transfected cells
Experiment: Alphascreen Surefire phospho-ERK1/2 functional assay, M4
Type: cell-based
Details: CHO, read-out: % Emax cf. ACh, M4, CHO cells stably expressing human M4; relative to ACh

{"columns": ["compound", "Emax, %"],
 "data": [
  ["CCOC(=O)N1CCC2(CC(N3CCC(C4CCCCN4C(=O)NC)CC3)C2)C1 (single isomer, unassigned) [4-20 Isomer 2]", 34],
  ["CCOC(=O)N1CCC2(CC(N3CCC([C@@H]4CCCN4C(=O)N4CCCC4)CC3)C2)C1 (single isomer, unassigned) [2-32 Isomer 2]", 110],
  ["CCOC(=O)N1CCC2(CC(N3CCC(N4CCCC(F)(F)C4)CC3)C2)C1 (single isomer, unassigned) [4-13 Isomer 2]", 59],
  ["CCOC(=O)N1CCC2(CC(N3CCC(c4nnnn4C)CC3)C2)C1 (single isomer, unassigned) [1-64 Isomer 2]", 78],
  ["COC(=O)N1CCC2(CC(N3CCC(c4nc(Cl)c(Cl)n4C)CC3)C2)C1 (single isomer, unassigned) [1-16 Isomer 2]", 82],
  ["COC(=O)N1CCC2(CC(N3CCC([C@@H]4CCCN4C(=O)N4CC(F)(F)C4)CC3)C2)C1 (single isomer, unassigned) [2-41 Isomer 2]", 91],
  ["CCOC(=O)N1CCC2(CC(N3CCC([C@@H]4CCCN4C(=O)NCCF)CC3)C2)C1 (single isomer, unassigned) [2-44 Isomer 2]", 100],
  ["CCOC(=O)N1CCC2(CC(N3CCC(c4cscn4)CC3)C2)C1 (single isomer, unassigned) [1-50 Isomer 2]", 122],
  ["CCCn1nccc1C1CCN(C2CC3(CCN(C(=O)OCC)C3)C2)CC1 (single isomer, unassigned) [1-49 Isomer 2]", 92],
  ["CCOC(=O)N1CCC2(CC(N3CCC([C@@H]4CCCN4c4ccccc4)CC3)C2)C1 (single isomer, unassigned) [2-77 Isomer 2]", 105],
  ["CCOC(=O)N1CCC2(CC(N3CCC(N4CCC[C@@H]4C(F)F)CC3)C2)C1 (single isomer, unassigned) [2-103 Isomer 2]", 100],
  ["CCOC(=O)N1CCC2(CC(N3CCC(c4nnn(CC)n4)CC3)C2)C1 (single isomer, unassigned) [1-66 Isomer 2]", 32],
  ["CCOC(=O)N1CCC2(CC(N3CCC([C@@H]4CCCN4C(=O)N(C)Cc4ccccn4)CC3)C2)C1 (single isomer, unassigned) [2-63 Isomer 2]", 60]
]}
